B1: HDV Ribozyme (parent)
chain: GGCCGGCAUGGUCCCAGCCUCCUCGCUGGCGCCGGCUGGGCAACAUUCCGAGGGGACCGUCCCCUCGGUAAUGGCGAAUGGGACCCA

Variants of: B1
Test: self-cleavage, relative activity (ratio to wild type); higher = more cleavage; co-transcriptional
# if value of self-cleavage reaches 0.4, tag rule met; if it stays below, tag rule not met

| sequence input | assigned class |
| --- | --- |
| GGCCGGCAUGGUCCCAGCCUCCUCGUUGGCGCCGGCUGGGCAACAUUCCGAGGGGACCGUUCCCUCGGUAAUGGCGAAUGGGACCCA [C26U C61U] | rule met |
| GGCCGGCAUGGUCCCAGCCUCCUCGCUGGCGCCGGCUGUGCAACAUUUCGAGGGGACCGUCCCCUCGGUAAUGGCGAAUGGGACCCA [G39U C48U] | rule met |
| GGCCGGCAUGGUCCCAGCCUCCGCGCUGGCGGCGGCUGGGCAACAUUCCGAGGGGACCGUCCCCUCGGUAAUGGCGAAUGGGACCCA [U23G C32G] | rule not met |
| GGCCGGCAUGGACCCAGCCUCCUCGCUGGCGCCGGCUGGGCAACAUUCCGAGGGGACCGUCCCCUCGGUAAUGGCGAAUGAGACCCA [U12A G81A] | rule not met |
| GGCCGGCAUGGUACCAUCCUCCUCGCUGGCGCCGGCUGGGCAACAUUCCGAGGGGACCGUCCCCUCGGUAAUGGCGAAUGGGACCCA [C13A G17U] | rule not met |
| GGCCGGCACGGUCCCAGCCUCCUCGCUGGCGCCGGCAGGGCAACAUUCCGAGGGGACCGUCCCCUCGGUAAUGGCGAAUGGGACCCA [U9C U37A] | rule not met |
| GGCCGGCAUGGUCCCAGCCUCCUCGCUGGCGGCGGCUGGGCAACAUUACGAGGGGACCGUCCCCUCGGUAAUGGCGAAUGGGACCCA [C32G C48A] | rule not met |
| GGUCGGCAUGGUCCCAGCCUCCUCGCUGGCGCCGCCUGGGCAACAUUCCGAGGGGACCGUCCCCUCGGUAAUGGCGAAUGGGACCCA [C3U G35C] | rule met |
| GGCCGGCAUGGUCCCACCCUCCUCGAUGGCGCCGGCUGGGCAACAUUCCGAGGGGACCGUCCCCUCGGUAAUGGCGAAUGGGACCCA [G17C C26A] | rule not met |
| GGCUGGCAUGGUCCCAGCCUCCUCGCUGGCGCCGGCUGGGCAACAUUCCGAGGGGACCGUCCCCUCGGUAAUGGCGAAUGGGACCCG [C4U A87G] | rule met |
| GGCCGGCAUGGUCCCAGCCUCCUCGCUGGCGCCGGCUGGGCAACAUUCCGAGGGGACCGUCCCCUCGCUAAAGGCGAAUGGGACCCA [G68C U72A] | rule met |
| GGCCGGCAUGGUCCCAGCCUCCUCGCUGGCGCCGGCUGGGCAACAUUCCGAGGGGACCGUCCCCUCGGUAAUAGUGAAUGGGACCCA [G73A C75U] | rule not met |
| GGCCGGCAUGGUCCCAGCCUCCUCGCUGGCGCCGGCUGGGCAACAUUCCGAGGGGACCGUCCCGUCGGUAAUGGCUAAUGGGACCCA [C64G G76U] | rule met |
| GGCCGGCAUGGUCACAGCCACCUCGCUGGCGCCGGCUGGGCAACAUUCCGAGGGGACCGUCCCCUCGGUAAUGGCGAAUGGGACCCA [C14A U20A] | rule not met |
| GGCCGGCAUGGUCCCAGCCUCCUCGCUGGCGCCGGCUGGGCAACAUUCCGAGGGGACAGUCCCUUCGGUAAUGGCGAAUGGGACCCA [C58A C64U] | rule met |
| GGCCGGCAUGGUCCCAGCCUCCUCGCAGGCGCCGGCUGGGCAAGAUUCCGAGGGGACCGUCCCCUCGGUAAUGGCGAAUGGGACCCA [U27A C44G] | rule not met |
| GGCCGGCAUGGUCCCAUCCUCCUCGCUGGCGCCGGCUGGGCAACAUUCCGAGGGGACCGUCCCCUCGGUAAUGACGAAUGGGACCCA [G17U G74A] | rule not met |
| GGCCGGCAUGGUCUCAGCCUCCUCGCUGUCGCCGGCUGGGCAACAUUCCGAGGGGACCGUCCCCUCGGUAAUGGCGAAUGGGACCCA [C14U G29U] | rule not met |
| GGCCGGCAUGGUCCCAGCCUCCUCGCUGGCGCCGGCUGGGCAACAUUCCGAGGGGACCGUCCCCUCGGUAAUGGUGAAUGGGAUCCA [C75U C84U] | rule not met |
| GGCCGGCUUGGUCCCAGCCUCCUCGCUGGCGCCGGCUGGGCAACAUUCCGAGGGGACCGUCCCCGCGGUAAUGGCGAAUGGGACCCA [A8U U65G] | rule met |
| GGCCGGCAAGGUCCCAGCCUCCUCGCUGGCGCCGGCUGGGCAACAUUCCGAGGGGACCGUCCCCUCGGUAAUGGCGAAUGGGACCGA [U9A C86G] | rule met |
| GGCCGGCAUGGUCCCAGCCUCCUGGCUGGCGCCGGCCGGGCAACAUUCCGAGGGGACCGUCCCCUCGGUAAUGGCGAAUGGGACCCA [C24G U37C] | rule not met |
| GGCCGGCAUGGUCCCAGCCUCCUCGCUGGCGCCGGCUGGGCAACAUUCCGAGGGGACAGUGCCCUCGGUAAUGGCGAAUGGGACCCA [C58A C61G] | rule met |
| GGCCGGCAUGGUCCCAGCCUCCUCGCCGGCGCCGGCUGGGCAAUAUUCCGAGGGGACCGUCCCCUCGGUAAUGGCGAAUGGGACCCA [U27C C44U] | rule not met |
| GGCCGGCAUGGUCCCAGCAACCUCGCUGGCGCCGGCUGGGCAACAUUCCGAGGGGACCGUCCCCUCGGUAAUGGCGAAUGGGACCCA [C19A U20A] | rule not met |
| GGCCGGCAUGGUCCCAGCCUCCUCGCUGGCGCCGGCUGGGCAACAGUCCGAGGGGACCGUCCCCUCGGUAAUGCCGAAUGGGACCCA [U46G G74C] | rule not met |
| GGCCGGCAUGGUCCCAGCCUCCUCGCUGGCGCCGGCUGGGCAACAUUCCGUGGGGACCGUCCCCUCGGCAAUGGCGAAUGGGACCCA [A51U U69C] | rule met |
| GGCCGGCAUGGUCCCAGCCUCCUCGCUGGCGGCGGCUGGGCAACAUUCCGAUGGGACCGUCCCCUCGGUAAUGGCGAAUGGGACCCA [C32G G52U] | rule not met |
| GGCCGGCAUGGUCCCAGCCUCCUCGCUGGCGCCGGCUGGGCAACGCUCCGAGGGGACCGUCCCCUCGGUAAUGGCGAAUGGGACCCA [A45G U46C] | rule met |
| GGCCGGCAUGGGCCCAGCCUCCUCGCUGGCGCCGGCUGGGCUACAUUCCGAGGGGACCGUCCCCUCGGUAAUGGCGAAUGGGACCCA [U12G A42U] | rule met |
| GGACGGCAUGGUCCCAGCCUCCUCGCUGGCGCCGGCUGGGCAACAUUCCGAGGGGACCGUCCCCUCGGUAAUGGCGAAUGGAACCCA [C3A G82A] | rule not met |
| GGCCGGCAUGGUCCCAACCUCCUCGCUGGCGCCGGCUGGGCAUCAUUCCGAGGGGACCGUCCCCUCGGUAAUGGCGAAUGGGACCCA [G17A A43U] | rule not met |
| GGCCGGCUUGGUCCCAGCCUCCUCGCUGGCGCCGGCUGGGCAACAUUCCGAGGGGACCGUCGCCUCGGUAAUGGCGAAUGGGACCCA [A8U C62G] | rule not met |
| GGCCGGCAUGGUCCCAGCCCCCUCGCUGGCGCCGGUUGGGCAACAUUCCGAGGGGACCGUCCCCUCGGUAAUGGCGAAUGGGACCCA [U20C C36U] | rule not met |
| GGCCGGCAUGGUCCCAGCCUCCUCGCCGGCGCCGGCUGGGCAACAUUCCGAGGGGACCGUCACCUCGGUAAUGGCGAAUGGGACCCA [U27C C62A] | rule met |
| GGCCGGGAUGGUCCCAGCCUCCUCGCUGGCGCCGGCUGGGCAACAUUCCGAGGGGACCGUCCCCUCGGUGAUGGCGAAUGGGACCCA [C7G A70G] | rule not met |
| GGCCGGCAUGGUCCCAGCCUCCUCGCUGGCGCCGGCUGGGCAACAUUCCGAGGGGACCGUCCCCUCGGUAAUGGCGAAAGGGACGCA [U79A C85G] | rule met |
| GGCCAGCAUGGUCCCAGCCUCCUCGCUGGCGCCGGCUGGGCAACAUUCCGAGGGGACCGUCCCCUCGGUAAUGGCGAAUGGGCCCCA [G5A A83C] | rule not met |
| GGCCGGCAUGGUCCCAGCCUCCUCGUUGGCGCCGGCUGGGCAACAUUCCGAUGGGACCGUCCCCUCGGUAAUGGCGAAUGGGACCCA [C26U G52U] | rule met |
| GGCCGGCAUAGUCCCAGCCUCCUCGCCGGCGCCGGCUGGGCAACAUUCCGAGGGGACCGUCCCCUCGGUAAUGGCGAAUGGGACCCA [G10A U27C] | rule met |
| GGCCGGCAUGGUCCCAGCCUCCUCGCUGGCGCCUGCUGGGCAACAUUCCGAGGGGACCGUCUCCUCGGUAAUGGCGAAUGGGACCCA [G34U C62U] | rule not met |
| GGCCGGCAUGGUCCCAGCCUCCUCGCUGGCUCCGGCUGGGCAACAUUCCGAGGGGAACGUCCCCUCGGUAAUGGCGAAUGGGACCCA [G31U C57A] | rule met |
| GGCCGGGAUGGUCCCAGCCUCCUCGCUGGCGCCCGCUGGGCAACAUUCCGAGGGGACCGUCCCCUCGGUAAUGGCGAAUGGGACCCA [C7G G34C] | rule not met |
| GGCCGGCAUGGUCCCAGCCUCCGCGCUGGCGCCGGCUGGGCAACAUUCCGAGGGGACCGUCCCCUCGGUAAUGGCGAGUGGGACCCA [U23G A78G] | rule not met |

Where these numbers come from: the RNAGym collection of RNA variant scans (doi:10.7554/elife.80360)
